# study.system: Cyclin D1 - CDK4 (Homo sapiens, UniProt P11802)
# Sequence (P11802 whole entry): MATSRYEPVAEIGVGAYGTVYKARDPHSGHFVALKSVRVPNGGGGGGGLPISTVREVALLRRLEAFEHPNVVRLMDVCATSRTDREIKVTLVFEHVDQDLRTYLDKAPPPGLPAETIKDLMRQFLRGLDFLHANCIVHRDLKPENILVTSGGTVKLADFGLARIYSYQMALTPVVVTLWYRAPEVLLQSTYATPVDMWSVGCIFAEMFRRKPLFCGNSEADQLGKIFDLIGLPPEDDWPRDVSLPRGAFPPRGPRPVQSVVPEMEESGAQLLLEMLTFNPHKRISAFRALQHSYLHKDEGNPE
# Sequence (P24385 whole entry partner): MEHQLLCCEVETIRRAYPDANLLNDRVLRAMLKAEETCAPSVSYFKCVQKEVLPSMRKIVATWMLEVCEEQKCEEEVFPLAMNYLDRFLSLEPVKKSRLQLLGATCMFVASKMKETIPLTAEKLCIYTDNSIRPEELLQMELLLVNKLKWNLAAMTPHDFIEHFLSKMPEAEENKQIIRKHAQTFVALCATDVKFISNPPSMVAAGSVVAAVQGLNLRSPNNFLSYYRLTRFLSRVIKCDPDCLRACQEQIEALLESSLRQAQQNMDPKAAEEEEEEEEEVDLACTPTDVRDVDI
# measurement.description: Cyclin D1 - CDK4 kinase inhibition assay
# reported.conditions: [ATP] = 100 μM
endpoint.label: IC50 (µM)

Some molecules with recorded IC50:
- molecule: "Cc1nc2c(s1)-c1nc(Nc3ccc(C(F)(F)F)cc3)ncc1CC2 [Cpd 2]"
  result.number: 9.2
- molecule: "Cc1nc2c(s1)-c1nc(Nc3ccc(N(C)C)cc3)ncc1CC2 [Cpd 6]"
  result.number: 0.07
- molecule: "Nc1nc2c(s1)-c1nc(Nc3cccc([N+](=O)[O-])c3)ncc1CC2 [Cpd 14]"
  result.number: 0.25
- molecule: "Nc1nc2c(s1)-c1nc(Nc3ccccc3)ncc1CC2 [Cpd 13]"
  result.number: 0.61
- molecule: "Cc1nc2c(s1)-c1nc(Nc3ccccc3)ncc1CC2 [Cpd 11]"
  result.number: 1.68

1 = Cc1nc2ccc3cnc(Nc4ccccc4)nc3c2s1 [Cpd 12]
2 = Cc1nc2c(s1)-c1nc(Nc3ccc(O)cc3)ncc1CC2 [Cpd 5]
[in] Would you mind telling me which has the lower recorded IC50 between 1 and 2 ? API: response body contains the label of the selected item.
[out] 2

a = Cc1nc2c(s1)-c1nc(Nc3ccc(Cl)nc3)ncc1CC2 [Cpd 7]
b = Cc1nc2c(s1)-c1nc(Nc3cccc(O)c3)ncc1CC2 [Cpd 3]
[in] Would you mind telling me which has the lower recorded IC50 between a and b ? API: response body contains the label of the selected item.
[out] a
(a: 0.075 µM, b: 1.1 µM)

1 = COc1ccc(Nc2ncc3c(n2)-c2sc(C)nc2CC3)cn1 [Cpd 8]
2 = Cc1nc2c(s1)-c1nc(Nc3cccc([N+](=O)[O-])c3)ncc1CC2 [Cpd 1]
[in] Between the entries labelled 1 and 2 , which has a larger IC50 value on record? API: response body contains the label of the selected item.
[out] 2
(2: 3.8 µM, 1: 0.22 µM)
